- Protocol notes: in vitro
- Stated conditions: human, hek293t cells
List of viability at 48 h, 25 µM values.
Quick reminder: number only, in %, skip the unit.

// worked examples, viability at 48 h, 25 µM included
[[record]]
compound = "C=CC(=O)NCCC(=O)N1CCCC1c1cc(C)on1 (stereo not drawn)"
experimental_readout = "viability at 48 h, 25 µM"
measurement = 81.3

[[record]]
compound = "C=CC(=O)Nc1cccc(N2CCOCC2)c1"
experimental_readout = "viability at 48 h, 25 µM"
measurement = 74.1

[[record]]
compound = "CC1CC1c1ccc(C=C(C#N)C(=O)Nc2ccc(C(=O)O)cc2)o1 (stereo not drawn)"
experimental_readout = "viability at 48 h, 25 µM"
measurement = 133


Per the records, this compound ( `C=CC(=O)NCCC(=O)N1CCN(c2nc(C)cs2)CC1` ) has viability at 48 h, 25 µM equal to 52.1

Per the records, this compound ( CC(Cl)C(=O)N(Cc1nc(C2CCCCCC2)no1)C1CC1 (stereo not drawn) ) has viability at 48 h, 25 µM equal to 78.1

Per the records, this compound ( CC(Cl)C(=O)NC[C@H]1CCCN(C2CC2)[C@@H]1c1ccnn1C (mixture of isomers) ) has viability at 48 h, 25 µM equal to 101

Per the records, this compound ( C=CC(=O)NC1CCCN(c2cc(N3CCOCC3)ncn2)C1 (stereo not drawn) ) has viability at 48 h, 25 µM equal to 103

Per the records, this compound ( `C=CC(=O)N1CCC(C(=O)NCC(C)(C)C=C)CC1` ) has viability at 48 h, 25 µM equal to 84.5

Per the records, this compound ( Cc1cc(NC(=O)CN(C)C(=O)C(C)Cl)no1 (stereo not drawn) ) has viability at 48 h, 25 µM equal to 79.5

Per the records, this compound ( COCC(C)NC(=O)C(C#N)=Cc1ccc(F)c(C)c1 (stereo not drawn) ) has viability at 48 h, 25 µM equal to 108

Per the records, this compound ( `O=C(CCl)N1CCN(Cc2ccon2)CC1` ) has viability at 48 h, 25 µM equal to 104

Per the records, this compound ( Cc1csc(CN(CC2CCCO2)C(=O)C(C)Cl)n1 (stereo not drawn) ) has viability at 48 h, 25 µM equal to 94.1

Per the records, this compound ( `COc1ccc(C=C(C#N)C(=O)Nc2cccc(Cl)c2)cc1` ) has viability at 48 h, 25 µM equal to 80

Per the records, this compound ( O=C(CCl)NC(c1ccc(F)cc1)c1cccs1 (stereo not drawn) ) has viability at 48 h, 25 µM equal to 0.21

Per the records, this compound ( `CCC(=O)Nc1cccc(NC(=O)CCl)c1C` ) has viability at 48 h, 25 µM equal to 2.12

Per the records, this compound ( `C=CC(=O)Nc1nn(CC(C)C)cc1Cl` ) has viability at 48 h, 25 µM equal to 103

* * *

- Protocol notes: in vitro
- Stated conditions: human, hek293t cells
Lab note: anything with viability at 48 h, 25 µM below 70% is marked fulfilled; values at 70% or higher are marked not fulfilled.

[[record]]
molecule = "CC(Cl)C(=O)c1ccc(Cl)cc1 (stereo not shown) [10-O04, 2-chloro-1-(4-chlorophenyl)propan-1-one]"
label_value = "not fulfilled"

[[record]]
molecule = "Cn1nccc1CN1C[C@@H](F)C[C@H]1CNC(=O)CCl [5-C04]"
label_value = "not fulfilled"

[[record]]
molecule = "C=CC(=O)N(C)CC(=O)NC1CCN(C(=O)c2ccc(C)cc2)CC1 [2-N14]"
label_value = "fulfilled"

[[record]]
molecule = "Cc1cc(C(=O)CCl)c(C)n1-c1ccc(OC(F)(F)F)cc1 [10-G04]"
label_value = "fulfilled"

[[record]]
molecule = "O=C(CCl)C1CCC2(CC1)CC2 [10-C17]"
label_value = "fulfilled"

[[record]]
molecule = "N#CC(=Cc1ccc(OC(F)F)cc1)C(=O)Nc1cccnc1 [9-K04]"
label_value = "not fulfilled"

[[record]]
molecule = "COc1ccccc1NC(=O)C(C#N)=Cc1ccccc1F [8-E11]"
label_value = "fulfilled"


Turning now to a further record.
Q: hey, is viability at 48 h, 25 µM for O=C1C=CC(=O)N1c1ccc(Oc2ccccc2)cc1 [10-F17] lower than 70% or not?
Result: not fulfilled
